Target: hnRNPA2B1 GRD3 (301–353 aa) (Homo sapiens, UniProt P22626)
Sequence (P22626 301-353): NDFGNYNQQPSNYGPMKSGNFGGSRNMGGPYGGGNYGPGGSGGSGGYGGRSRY
measured.parameter: pKd
For clarity, pKd is expressed as the negative log10 of concentration in mol/L.

Answer with the recorded pKd for the compound listed here: CC(C)(O)[C@H]1Cc2cc3cc(-c4ccc(O)cc4)oc3cc2O1 6.52

* * *

Data export: Kd values recorded with full-length hnRNPA2B1 (1–353 aa) (Homo sapiens, UniProt P22626).
Remember to follow the number with its unit.

# compound.string, Kd
records = [
    ("CC(C)(O)[C@H]1Cc2cc3cc(-c4ccc(OCC(=O)NCCOCCOCCNC(=O)CCCC[C@@H]5SC[C@@H]6NC(=O)N[C@@H]65)cc4)oc3cc2O1", "11.4 µM"),
]

// fetch Kd given entry CC(C)(O)[C@H]1Cc2cc3cc(-c4ccc(O)cc4)oc3cc2O1 11.4 µM
